test system: THP-1 cells; test: Measurement of IL-1β production, hTRF protocol (second alternative procedure), THP-1 cells; assay type: cell-based, human; settings: Homo sapiens, THP-1, IL-1β production, human; read-out: NLRP3 hILIB EC50
pEC50 by entry:
# pEC50 = -log10(concentration in molar units)

Some entries whose results are on file:
1) Nc1nc2cc(-c3ccn[nH]3)ccc2c2sc(CCCO)nc12 | 5.82
2) Nc1nc2cc(-c3cc[nH]n3)ccc2c2cn(CCNC(=O)Nc3ccccc3)nc12 | 5.11
3) Nc1nc2cc(-c3cc[nH]n3)ccc2c2nn(CCCCO)cc12 | 6.19
4) Nc1nc2cc(-c3ccn[nH]3)ccc2c2nn(CCNC(=O)c3csc(Cl)n3)nc12 | 6.01

Prompt line: Missing value: pEC50, THP-1 cells, entry "Nc1nc2cc(-c3cc[nH]n3)ccc2c2c1cnn2Cc1cn[nH]c1" . Fill in?
Response line: 5.84

* * *

biological target: TLR8 (Homo sapiens); construct: human HEK-Blue cells co-expressing a TLR7 or TLR8 gene; experiment: In vitro human TLR8 binding reporter assay (HEK-Blue, NF-kB/AP1-inducible SEAP); assay type: cell-based; details: activity range class, read-out: TLR8 Agonist EC50
Sequence (Q9NR97 27-1041): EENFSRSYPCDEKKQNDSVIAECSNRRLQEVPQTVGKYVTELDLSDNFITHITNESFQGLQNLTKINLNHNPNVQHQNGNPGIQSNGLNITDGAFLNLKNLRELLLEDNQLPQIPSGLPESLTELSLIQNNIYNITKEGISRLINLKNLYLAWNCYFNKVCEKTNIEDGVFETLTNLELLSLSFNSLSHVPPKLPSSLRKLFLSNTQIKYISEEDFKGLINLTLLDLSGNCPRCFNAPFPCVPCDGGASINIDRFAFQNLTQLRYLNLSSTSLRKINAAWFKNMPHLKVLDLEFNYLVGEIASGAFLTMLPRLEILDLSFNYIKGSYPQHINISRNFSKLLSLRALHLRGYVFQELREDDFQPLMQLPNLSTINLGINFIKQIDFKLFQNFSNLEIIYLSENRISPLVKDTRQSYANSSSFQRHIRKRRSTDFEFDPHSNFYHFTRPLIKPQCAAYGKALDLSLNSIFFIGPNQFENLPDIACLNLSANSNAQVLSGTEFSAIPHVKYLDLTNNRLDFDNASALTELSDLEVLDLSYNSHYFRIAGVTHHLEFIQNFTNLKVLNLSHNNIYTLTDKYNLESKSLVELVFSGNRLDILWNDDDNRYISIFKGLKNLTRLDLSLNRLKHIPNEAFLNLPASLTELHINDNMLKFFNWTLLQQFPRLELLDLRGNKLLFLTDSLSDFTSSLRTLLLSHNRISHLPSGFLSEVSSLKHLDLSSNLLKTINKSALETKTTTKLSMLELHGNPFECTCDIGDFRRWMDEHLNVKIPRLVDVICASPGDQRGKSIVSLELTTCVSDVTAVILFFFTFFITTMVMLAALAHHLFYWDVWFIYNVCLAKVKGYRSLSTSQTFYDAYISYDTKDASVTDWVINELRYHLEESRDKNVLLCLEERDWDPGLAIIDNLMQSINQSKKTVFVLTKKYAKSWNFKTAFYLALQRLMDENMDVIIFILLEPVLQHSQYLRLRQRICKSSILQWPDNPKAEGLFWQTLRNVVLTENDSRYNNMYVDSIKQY
EC50 by entry:

1) Nc1nc2cc(-c3cc[nH]n3)ccc2c2cn(CCNCc3cccc(F)c3)nc12 | 20 to 100 µM

Prompt line: Using the record for "Cc1csc(C(=O)NCCn2cc3c(n2)c(N)nc2cc(-c4cc[nH]n4)ccc23)n1" , report its EC50.
Response line: 20 to 100 µM

Prompt line: Using the record for "Nc1nc2cc(-c3cc[nH]n3)ccc2c2c1cnn2CCOCCO" , report its EC50.
Response line: > 100 µM

* * *

Target: TLR7 (Homo sapiens)
Construct: human HEK-Blue cells co-expressing a TLR7 or TLR8 gene
Sequence (Q9NYK1 27-1049): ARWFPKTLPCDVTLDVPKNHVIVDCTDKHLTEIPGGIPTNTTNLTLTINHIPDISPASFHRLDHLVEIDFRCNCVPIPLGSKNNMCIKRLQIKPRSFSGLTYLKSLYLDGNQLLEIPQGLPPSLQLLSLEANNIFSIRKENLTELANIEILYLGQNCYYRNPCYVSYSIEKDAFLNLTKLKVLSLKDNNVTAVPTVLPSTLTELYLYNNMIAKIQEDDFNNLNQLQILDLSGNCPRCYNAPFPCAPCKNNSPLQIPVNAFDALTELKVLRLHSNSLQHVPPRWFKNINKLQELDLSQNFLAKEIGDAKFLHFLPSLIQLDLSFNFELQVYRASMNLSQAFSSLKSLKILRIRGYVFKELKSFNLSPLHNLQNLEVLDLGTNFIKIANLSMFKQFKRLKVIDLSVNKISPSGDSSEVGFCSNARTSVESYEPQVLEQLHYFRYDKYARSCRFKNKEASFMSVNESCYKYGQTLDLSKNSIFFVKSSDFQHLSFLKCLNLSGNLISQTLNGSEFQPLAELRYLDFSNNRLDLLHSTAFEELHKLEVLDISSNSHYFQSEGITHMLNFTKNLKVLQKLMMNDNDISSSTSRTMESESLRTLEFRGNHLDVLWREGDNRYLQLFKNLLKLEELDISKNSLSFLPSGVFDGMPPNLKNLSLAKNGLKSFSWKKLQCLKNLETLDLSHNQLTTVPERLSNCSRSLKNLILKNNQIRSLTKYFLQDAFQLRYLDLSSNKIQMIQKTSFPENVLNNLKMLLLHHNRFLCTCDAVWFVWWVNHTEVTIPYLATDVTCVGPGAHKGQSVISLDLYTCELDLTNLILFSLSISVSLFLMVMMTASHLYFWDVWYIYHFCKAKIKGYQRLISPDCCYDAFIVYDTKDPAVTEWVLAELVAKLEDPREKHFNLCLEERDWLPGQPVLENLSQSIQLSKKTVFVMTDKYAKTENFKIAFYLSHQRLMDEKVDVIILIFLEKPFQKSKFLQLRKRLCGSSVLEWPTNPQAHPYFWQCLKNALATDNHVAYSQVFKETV
Assay: In vitro human TLR7 binding reporter assay (HEK-Blue, NF-kB/AP1-inducible SEAP)
Assay type: cell-based
Conditions: activity range, read-out: TLR7 Agonist EC50
pEC50: −log10 of the molar value.
pEC50 by entry:

Some entries whose results are on file:
1. CC(C)(Cn1cc2c(N)nc3cc(-c4ccn[nH]4)ccc3c2n1)C(=O)NCCO | < 4.00
2. NCc1cc2c(N)nc3cc(-c4ccn[nH]4)ccc3c2[nH]1 | < 4.00
3. CC(C)(Cn1cc2c(N)nc3cc(-c4ccn[nH]4)ccc3c2n1)C(=O)N1CC(O)C1 | < 4.00
4. CN(C)C(=O)Cn1cc2c(N)nc3cc(-n4cccn4)ccc3c2n1 | < 4.00
5. CC(Cn1cc2c(N)nc3cc(-c4cc[nH]n4)ccc3c2n1)C(=O)N1CC(O)C1 (centres unmarked) | < 4.00

Prompt line: Missing value: pEC50, TLR7 (Homo sapiens), entry "Nc1nc2cc(-c3cc[nH]n3)ccc2c2[nH]c(CCNC(=O)c3cc(F)ccn3)cc12" . Fill in?
Response line: < 4.00

Prompt line: Missing value: pEC50, TLR7 (Homo sapiens), entry "CN1CCN(C(=O)CCn2cc3c(N)nc4cc(-c5cc[nH]n5)ccc4c3n2)CC1" . Fill in?
Response line: < 4.00

Prompt line: Missing value: pEC50, TLR7 (Homo sapiens), entry "CNC(=O)C1(Cn2cc3c(N)nc4cc(-c5ccn[nH]5)ccc4c3n2)CC1" . Fill in?
Response line: < 4.00
